assay: Single rising dose plasma PK, OZ439 capsule, fasted healthy subjects; assay type: in vivo, human; conditions: both, human, plasma, oral, 200 mg
readout name: Cmax (ng/mL)
Use ng/mL as the unit, but write only the number.

**Query** Which Cmax is listed for c1cc([C@H]2CC[C@]3(CC2)OO[C@]2(O3)C3CC4CC(C3)CC2C4)ccc1OCCN1CCOCC1 ?
**Result** 102

* * *

assay: Multiple rising dose plasma PK, OZ439 oral dispersion once daily for 3 days; assay type: in vivo, human; conditions: human, plasma, po, 400 mg, tmax, 400 mg once a day for 3 days, oral dispersion, day 1; median (range)
readout name: Tmax (h)
Use h as the unit, but write only the number.

**Query** Which Tmax is listed for c1cc([C@H]2CC[C@]3(CC2)OO[C@]2(O3)C3CC4CC(C3)CC2C4)ccc1OCCN1CCOCC1 ?
**Result** 3.5

* * *

assay: Single rising dose plasma PK, OZ439 oral dispersion, fasted healthy subjects; type: in vivo, human; conditions: human, plasma, po, 400 mg
readout name: Cmax (ng/mL)
Use ng/mL as the unit, but write only the number.

**Query** Which Cmax is listed for c1cc([C@H]2CC[C@]3(CC2)OO[C@]2(O3)C3CC4CC(C3)CC2C4)ccc1OCCN1CCOCC1 ?
**Result** 566

* * *

assay: Single rising dose plasma PK, OZ439 capsule, fasted healthy subjects; assay type: in vivo, human; conditions: both, human, plasma, oral, 50 mg
readout name: AUC(0-t) (ng·h/mL)
Use ng·h/mL as the unit, but write only the number.

**Query** Which AUC(0-t) is listed for c1cc([C@H]2CC[C@]3(CC2)OO[C@]2(O3)C3CC4CC(C3)CC2C4)ccc1OCCN1CCOCC1 [OZ439] ?
**Result** 102

* * *

assay: Single rising dose plasma PK, OZ439 capsule, fasted healthy subjects; format: in vivo, human; details: both, human, plasma, oral, 50 mg
readout name: Tmax
State the value with its unit after it.

**Query** Which Tmax is listed for c1cc([C@H]2CC[C@]3(CC2)OO[C@]2(O3)C3CC4CC(C3)CC2C4)ccc1OCCN1CCOCC1 ?
**Result** 3 h

* * *

assay: Single rising dose plasma PK, OZ439 oral dispersion, fasted healthy subjects; format: in vivo, human; conditions: human, plasma, po, 800 mg
readout name: Tmax (h)
Use h as the unit, but write only the number.

**Query** Which Tmax is listed for c1cc([C@H]2CC[C@]3(CC2)OO[C@]2(O3)C3CC4CC(C3)CC2C4)ccc1OCCN1CCOCC1 ?
**Result** 3

* * *

assay: Multiple rising dose plasma PK, OZ439 oral dispersion once daily for 3 days; format: in vivo, human; settings: human, plasma, po, 800 mg, Cmax, 800 mg once a day for 3 days, oral dispersion, day 3; geometric mean (CV%)
readout name: Cmax (ng/mL)
Use ng/mL as the unit, but write only the number.

**Query** Which Cmax is listed for c1cc([C@H]2CC[C@]3(CC2)OO[C@]2(O3)C3CC4CC(C3)CC2C4)ccc1OCCN1CCOCC1 ?
**Result** 1390

* * *

test: Single rising dose plasma PK, OZ439 oral dispersion, fasted healthy subjects; assay type: in vivo, human; conditions: human, plasma, po, 1600 mg
readout name: Tmax
State the value with its unit after it.

**Query** Which Tmax is listed for c1cc([C@H]2CC[C@]3(CC2)OO[C@]2(O3)C3CC4CC(C3)CC2C4)ccc1OCCN1CCOCC1 ?
**Result** 5 h

// data source = paper PMC3558805
